Exercise: for every item that follows, state its recorded pIC50.
- Tested on: THP-1
- measurement protocol: Cytotoxicity against human THP1 cells assessed as reduction in cell viability measured after 48 hrs by resazurin assay
- Format: cell-based
- experimental setup: THP-1, 48 h
pIC50: −log10 of the molar value.

Use the examples below as a reference point.
> print(dat)
                           structure.string  reported
1  Cc1cc(-c2ccc(C(=O)[C@@H]3CCCC[C@H]3C(=O)Nc3cnn(C)c3S(N)(=O)=O)cc2)n[nH]1    < 3.60
2  Cc1cc(-c2ccc(C(=O)[C@@H]3CCCC[C@H]3C(=O)Nc3cnn4c3C(=O)NCC4)cc2)n[nH]1    < 3.60

Now take the following compound into account.
Entry `Cc1cc(-c2ccc(C(=O)[C@@H]3CCCC[C@H]3C(=O)Nc3cnn(C)c3C(=O)NOC(C)(C)C)cc2)[nH]n1` — recorded pIC50 = < 3.60

----------
- measurement protocol: Volume of distribution at steady state in Beagle dog at 1 umol/kg, iv
- Assay type: ADME, Canis lupus familiaris
- experimental setup: in vivo, read-out: Vdss
recorded endpoint: Vd (L/kg)
Answers are plain numbers, in L/kg.

Entry `Cc1cc(-c2ccc(C(=O)[C@@H]3CCCC[C@H]3C(=O)Nc3cnn(C)c3C(=O)NOC(C)(C)C)cc2)[nH]n1` — recorded Vd = 0.4

----------
- measurement protocol: Protein binding in Sprague-Dawley rat plasma assessed as unbound fraction by equilibrium dialysis method
- Format: ADME, cell-free
recorded endpoint: fraction unbound
Answers are plain numbers.

> print(dat)
                           structure.string  recorded.endpoint  reported
1  Cc1cc(-c2ccc(C(=O)[C@@H]3CCCC[C@H]3C(=O)Nc3cnn4c3C(=O)NCC4)cc2)[nH]n1   fraction unbound     0.024

Now take the following compound into account.
Entry `Cc1cc(-c2ccc(C(=O)[C@@H]3CCCC[C@H]3C(=O)Nc3cnn(C)c3S(N)(=O)=O)cc2)[nH]n1` — recorded fraction unbound = 0.014

----------
- measurement protocol: Intrinsic clearance in human hepatocytes assessed per million cells at 1 uM measured after 2 to 60 mins by LC-MS/MS analysis
- Type: ADME, cell-based, Hepatocyte
- experimental setup: read-out: CLH
Lab note: compare hepatocyte CLint at 1 µM against 5 µL/min/1e6 cells. Equal or greater, write T. Smaller, write F.

Solved cases (4 shown):
> print(dat)
                           structure.string  classification
1  Cc1cc(-c2ccc(C(=O)[C@@H]3CCCC[C@H]3C(=O)Nc3c(C(N)=O)n[nH]c3C)cc2)[nH]n1               T
2  Cc1cc(-c2ccc(C(=O)[C@@H]3CCCC[C@H]3C(=O)Nc3c(C)nn(C)c3C(N)=O)cc2)n[nH]1               F
3  Cc1cc(-c2ccc(C(=O)[C@@H]3CCCC[C@H]3C(=O)Nc3cn(C)nc3C(N)=O)cc2)n[nH]1               T
4  Cc1cc(-c2ccc(C(=O)[C@@H]3CCCC[C@H]3C(=O)Nc3cn(C)nc3C)cc2)n[nH]1               F

QUERY: Decide: is the reported value of hepatocyte CLint at 1 µM for `Cc1cc(-c2ccc(C(=O)[C@@H]3CCCC[C@H]3C(=O)Nc3cnn(C)c3C(=O)O)cc2)[nH]n1` equal to or greater than 5 µL/min/1e6 cells?
RESULT: F

QUERY: Decide: is the reported value of hepatocyte CLint at 1 µM for `Cc1cc(-c2ccc(C(=O)[C@@H]3CCCC[C@H]3C(=O)Nc3cnn(C)c3C(=O)NOC(C)(C)C)cc2)[nH]n1` equal to or greater than 5 µL/min/1e6 cells?
RESULT: T

QUERY: Decide: is the reported value of hepatocyte CLint at 1 µM for `Cc1cc(-c2ccc(C(=O)[C@@H]3CCCC[C@H]3C(=O)Nc3cnn4c3C(=O)NCC4)cc2)[nH]n1` equal to or greater than 5 µL/min/1e6 cells?
RESULT: F

QUERY: Decide: is the reported value of hepatocyte CLint at 1 µM for `Cc1cc(-c2ccc(C(=O)[C@@H]3CCCC[C@H]3C(=O)Nc3cnn(C)c3C(N)=O)cc2)[nH]n1` equal to or greater than 5 µL/min/1e6 cells?
RESULT: F

Measured values drawn from ChEMBL document CHEMBL4393654 for this set.
